# subjectOfTest: MC5-R (Homo sapiens, UniProt P33032)
# Sequence (P33032 whole entry): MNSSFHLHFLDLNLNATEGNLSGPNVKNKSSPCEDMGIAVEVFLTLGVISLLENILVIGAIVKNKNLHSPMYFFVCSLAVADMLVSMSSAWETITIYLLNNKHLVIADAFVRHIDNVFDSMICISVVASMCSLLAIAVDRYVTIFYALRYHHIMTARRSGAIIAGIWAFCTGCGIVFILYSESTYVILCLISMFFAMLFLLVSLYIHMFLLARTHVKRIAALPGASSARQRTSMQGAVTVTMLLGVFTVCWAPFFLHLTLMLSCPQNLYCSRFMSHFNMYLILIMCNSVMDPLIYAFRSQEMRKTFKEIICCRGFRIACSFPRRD
# testDescription: Ki determination by the method of Example 4, MC5-R
# Assay type: binding
# Parameters: expressed in transfected cells; host or cells: HEK-293
# conditionNotes: read-out: Ki (nM) MC5-R
Labelling field: enter y if recorded Ki is less than 100 nM. Enter n if it equals or exceeds that cut-off.

Example results:
Ask: State whether 100 nM exceeds Ki recorded for NC(COCc1ccccc1)C(=O)NC(Cc1ccc(Cl)cc1Cl)C(=O)N1CCN(CCc2ccc3ccccc3c2)C(=O)C1CCCNC1=NCCN1 (centres unmarked) .
Reply: n

Ask: Dear reviewer, please state whether N=C(N)NCCCC1C(=O)N(CCc2c[nH]c3ccccc23)CCN1C(=O)C(Cc1ccc(Cl)cc1)NC(=O)C(COCc1ccccc1)NC(=O)CCCCCCN (centres unmarked) has Ki strictly beneath 100 nM.
Reply: y

Ask: Here's an entry: N=C(N)NCCC[C@H]1C(=O)N2C(CC[C@@H]2COc2ccc3ccccc3c2)N1C(=O)[C@@H](Cc1ccccc1Cl)NC(=O)[C@@H]1C[C@@H](OCc2ccccc2)CN1 (some centres unmarked) . Is its Ki below 100 nM?
Reply: n

Ask: Does N=C(N)NCCC[C@H]1C(=O)N2C(CC[C@@H]2COc2ccc3ccccc3c2)N1C(=O)[C@@H](Cc1ccc(Cl)cc1Cl)NC(=O)[C@@H]1Cc2ccccc2CN1 (some centres unmarked) have Ki strictly under 100 nM?
Reply: y

More entries:
Ask: Given the entry N=C(N)NCCCC1C(=O)N(CCc2c[nH]c3ccccc23)CCN1C(=O)C(Cc1ccc(Cl)cc1)NC(=O)C1Cc2ccccc2CN1 (centres unmarked) , would its reported Ki be below 100 nM?
Reply: y

Ask: Is Ki of NCCCC[C@H]1C(=O)N(CCc2ccc3ccccc3c2)CCN1C(=O)[C@@H](Cc1ccc(Cl)cc1Cl)NC(=O)[C@@H]1CC[C@H](c2ccccc2)N1 strictly below 100 nM?
Reply: n

Ask: Decide: Ki of CCCCCCC(=O)NC(COCc1ccccc1)C(=O)NC(Cc1ccc(Cl)cc1)C(=O)N1C(CCCCN)C(=O)N2C(COc3ccc4ccccc4c3)CCC21 (centres unmarked) strictly below 100 nM?
Reply: n

====

# subjectOfTest: UniProt:P41968
# Sequence (P41968 whole entry): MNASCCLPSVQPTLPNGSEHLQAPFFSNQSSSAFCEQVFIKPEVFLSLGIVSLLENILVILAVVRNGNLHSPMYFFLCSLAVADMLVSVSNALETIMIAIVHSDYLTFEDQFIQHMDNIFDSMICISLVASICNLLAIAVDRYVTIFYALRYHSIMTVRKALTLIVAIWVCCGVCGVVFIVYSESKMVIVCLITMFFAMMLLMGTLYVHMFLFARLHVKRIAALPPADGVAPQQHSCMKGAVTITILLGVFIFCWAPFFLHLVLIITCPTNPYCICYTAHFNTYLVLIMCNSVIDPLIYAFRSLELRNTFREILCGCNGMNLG
# testDescription: Competitive inhibition binding assay, 125I-NDP-α-MSH, MC3-R
# Parameters: expressed in transfected cells
# conditionNotes: 1 μM compound; inhibition of 125I-NDP-α-MSH binding; mean of triplicates; results less than 0% reported as 0%
Here, each record is paired with measured Inhibition at 1 μM MC3-R data.
Reply with just the number (in %).

Ask: Report Inhibition at 1 μM MC3-R for NCCCC[C@H]1C(=O)N2C(CC[C@@H]2COc2ccc3ccccc3c2)N1C(=O)[C@@H](Cc1ccccc1Cl)NC(=O)[C@@H]1Cc2ccccc2CN1 (stereo partly shown)
Reply: 2

Ask: Please supply the value of reported Inhibition at 1 μM MC3-R for the item NCCCC[C@H]1C(=O)N2C(CC[C@@H]2COc2ccc3ccccc3c2)N1C(=O)[C@@H](Cc1ccccc1Cl)NC(=O)[C@@H]1C[C@H](Oc2ccc3ccccc3c2)CN1 (stereo partly shown)
Reply: 0

Ask: Give recorded Inhibition at 1 μM MC3-R. NCCCC[C@H]1C(=O)N2C(CC[C@@H]2COc2ccc3ccccc3c2)N1C(=O)[C@@H](Cc1ccccc1Cl)NC(=O)[C@@H](N)C1Cc2ccccc2C1 (stereo partly shown)
Reply: 0

Ask: // fetch Inhibition at 1 μM MC3-R given entry N[C@H](Cc1ccc(Cl)cc1Cl)C(=O)N1CCN(CCc2ccc3ccccc3c2)C(=O)[C@@H]1CCCCNC(=O)CC1CCCCC1
Reply: 4

====

# subjectOfTest: MC5-R (Homo sapiens, UniProt P33032)
# testDescription: Competitive inhibition binding assay, 125I-NDP-α-MSH, MC5-R
# Parameters: expressed in transfected cells
# conditionNotes: 1 μM compound; inhibition of 125I-NDP-α-MSH binding; mean of triplicates; results less than 0% reported as 0%
endpoint: Inhibition at 1 μM MC5-R (%)
Field format: number, assumed %, no unit text.

Guide cases for Inhibition at 1 μM MC5-R, answers given:
Ask: Param request: Inhibition at 1 μM MC5-R | system MC5-R (Homo sapiens, UniProt P33032) | item N=C(N)NCCC[C@H]1C(=O)N(CCc2ccc3ccccc3c2)CCN1C(=O)[C@@H](Cc1ccc(Cl)cc1Cl)NC(=O)[C@@H](N)COCc1ccccc1
Reply: 96

Ask: Under MC5-R (Homo sapiens, UniProt P33032), report Inhibition at 1 μM MC5-R for N=C(N)NCCC[C@H]1C(=O)N(CCc2ccc3ccccc3c2)CCN1C(=O)[C@H](N)Cc1ccc(Cl)cc1Cl
Reply: 35

Ask: Please indicate recorded Inhibition at 1 μM MC5-R of NCCCC[C@H]1C(=O)N(CCc2ccc3ccccc3c2)CCN1C(=O)[C@@H](Cc1ccc(Cl)cc1Cl)NC(=O)CCc1ccccc1 measured with MC5-R (Homo sapiens, UniProt P33032).
Reply: 34

Ask: Under MC5-R (Homo sapiens, UniProt P33032), report Inhibition at 1 μM MC5-R for NC(=O)NCC[C@H]1C(=O)N(CCc2ccc3ccccc3c2)CCN1C(=O)[C@H](N)Cc1ccc(Cl)cc1Cl
Reply: 5

Ask: Name the recorded Inhibition at 1 μM MC5-R of N[C@H](Cc1ccc(Cl)cc1Cl)C(=O)N1CCN(CCc2ccc3ccccc3c2)C(=O)[C@@H]1CCCCNC(=O)CC1CCCCC1 , assay system MC5-R (Homo sapiens, UniProt P33032).
Reply: 2

Continuing:
Ask: Please report the measured Inhibition at 1 μM MC5-R for NC(=O)NCCCC[C@H]1C(=O)N(CCc2ccc3ccccc3c2)CCN1C(=O)[C@H](N)Cc1ccc(Cl)cc1Cl tested on MC5-R (Homo sapiens, UniProt P33032).
Reply: 14

Ask: Fill: Inhibition at 1 μM MC5-R (MC5-R (Homo sapiens, UniProt P33032)) for this compound NCCCCC1C(=O)N2C(COc3ccccc3)CCC2N1C(=O)C(N)Cc1ccc(Cl)cc1 (stereo not shown)
Reply: 0

Ask: Determine reported Inhibition at 1 μM MC5-R for NCCCC[C@H]1C(=O)N(CCc2ccccc2)CCN1C(=O)[C@@H](Cc1ccc(Cl)cc1)NC(=O)[C@@H](N)COCc1ccccc1 ; test system: MC5-R (Homo sapiens, UniProt P33032).
Reply: 14

Ask: Identify measured Inhibition at 1 μM MC5-R obtained with MC5-R (Homo sapiens, UniProt P33032) for NCCCNC(=O)C1CC(OCc2ccccc2)CN1C(=O)C(Cc1ccccc1)NC(=O)C1CCC(=O)N1C(=O)OCc1ccccc1 (stereo not shown) .
Reply: 0

Ask: Please respond with reported Inhibition at 1 μM MC5-R (system MC5-R (Homo sapiens, UniProt P33032)) for NCCCNC(=O)[C@@H]1C[C@@H](OCc2ccccc2)CN1C(=O)[C@@H](Cc1ccccc1)NC(=O)C1(N)Cc2ccccc2C1 .
Reply: 0

Ask: Fill in Inhibition at 1 μM MC5-R for NCCCC[C@H]1C(=O)N(CCc2ccc3ccccc3c2)CCN1C(=O)[C@@H](Cc1ccc(Cl)cc1Cl)NCCOCc1ccccc1 tested with MC5-R (Homo sapiens, UniProt P33032).
Reply: 30

Ask: Check MC5-R (Homo sapiens, UniProt P33032) data and give Inhibition at 1 μM MC5-R for NCCCC[C@H]1C(=O)N(CCc2ccc3ccccc3c2)CCN1C(=O)[C@@H](Cc1ccc(Cl)cc1Cl)NC(=O)c1cccc(Oc2ccccc2)c1 .
Reply: 61

Ask: Provide Inhibition at 1 μM MC5-R, system MC5-R (Homo sapiens, UniProt P33032), entry CS(=O)(=O)NCCC[C@H]1C(=O)N(CCc2ccc3ccccc3c2)CCN1C(=O)[C@@H](Cc1ccc(Cl)cc1Cl)NC(=O)[C@@H](N)COCc1ccccc1
Reply: 14

====

Parameter Inhibition at 1 μM MC5-R: see the listing below.
# subjectOfTest: MC5-R (Homo sapiens)
# testDescription: Competitive inhibition binding assay, 125I-NDP-α-MSH, MC5-R
# Design: expressed in transfected cells
# conditionNotes: 1 μM compound; inhibition of 125I-NDP-α-MSH binding; mean of triplicates; results less than 0% reported as 0%
# Description: The competitive inhibition binding assay was conducted using membranes prepared from hMC3-R, hMC4-R, hMC5-R, and B-16 mouse melanoma cells (containing MC1-R) using 0.4 nM ^125I-NDP-α-MSH (New England Nuclear, Boston, Mass., USA) in 50 mM HEPES buffer containing 1 mM MgCl2, 2 mM CaCl2, and 5 mM KCl, at pH 7.2. […]
Value expressed in %; do not type the unit.

Ask: Assign Inhibition at 1 μM MC5-R to the following record: NCCCC[C@H]1C(=O)N2C(CC[C@@H]2COc2ccc3ccccc3c2)N1C(=O)[C@@H](Cc1ccc(Cl)cc1)NC(=O)[C@@H](N)COCc1ccccc1 (stereo partly drawn) [Example 79]
Reply: 86

Ask: Determine its reported Inhibition at 1 μM MC5-R: N=C(N)NCC[C@H]1C(=O)N(CCc2ccc3ccccc3c2)CCN1C(=O)[C@H](N)Cc1ccc(Cl)cc1Cl [Example 56]
Reply: 24

Ask: Specify reported Inhibition at 1 μM MC5-R for the compound shown: CCCCCCC(=O)NC(COCc1ccccc1)C(=O)NC(Cc1ccc2ccccc2c1)C(=O)N1CC2CC(Oc3ccc4ccccc4c3)CN2C(=O)C1CCCCN (stereo not drawn) [Example 178]
Reply: 0

Ask: Find the measured Inhibition at 1 μM MC5-R of CC(=O)NCCCC1C(=O)N(CCc2ccc3ccccc3c2)CCN1C(=O)C(Cc1ccc(Cl)cc1Cl)NC(=O)C(N)COCc1ccccc1 (stereo not drawn) [Example 42] and report it.
Reply: 30

Ask: Output Inhibition at 1 μM MC5-R of NCCCC[C@H]1C(=O)N(CCc2ccc3ccccc3c2)CCN1C(=O)[C@H](N)Cc1ccc(Cl)cc1Cl [Example 35]
Reply: 4

Now examine the next entry.
Ask: Using the record for NCCCNC(=O)[C@@H]1C[C@@H](OCc2ccccc2)CN1C(=O)[C@@H](Cc1ccccc1)NC(=O)[C@H](N)Cc1cccc2ccccc12 [Example 166] , state its measured Inhibition at 1 μM MC5-R.
Reply: 0
